inhibition at 50 µg/mL values by entry
test system: Alternaria solani; assay: Fungicidal activity against Alternaria solani assessed as inhibition of mycelium growth at 50 mg/L after 72 hrs; type: functional

Study these solved cases before continuing.
>  <compound>
CCOCCOC(=O)/C(C#N)=C(/CC)NNc1cccc(Cl)c1Cl

>  <inhibition at 50 µg/mL>
20%

$$$$
>  <compound>
CCOCCOC(=O)c1c(SC)nn(-c2ccc([N+](=O)[O-])cc2)c1N

>  <inhibition at 50 µg/mL>
8%

$$$$
>  <compound>
CCOCCOC(=O)/C(C#N)=C(\NNc1ccc(Cl)cc1Cl)C(C)C

>  <inhibition at 50 µg/mL>
40%

$$$$
>  <compound>
CCOCCOC(=O)c1c(SC)nn(-c2ccccc2)c1N

>  <inhibition at 50 µg/mL>
8%

$$$$
>  <compound>
CCOCCOC(=O)/C(C#N)=C(\NNc1cccc(Cl)c1Cl)C(C)C

>  <inhibition at 50 µg/mL>
35%

$$$$
>  <compound>
CCOCCOC(=O)c1c(SC)nn(-c2ccc(C)cc2C)c1N

>  <inhibition at 50 µg/mL>
8%

$$$$
>  <compound>
CCOCCOC(=O)/C(C#N)=C(\NNc1c(Cl)cccc1Cl)C(C)C

>  <inhibition at 50 µg/mL>
10%

$$$$
>  <compound>
CCOCCOC(=O)/C(C#N)=C(/CC)NNc1ccc(Cl)cc1Cl

>  <inhibition at 50 µg/mL>
40%

$$$$

Inquiry: Quick one: inhibition at 50 µg/mL for CCOCCOC(=O)c1c(C(C)C)nn(-c2ccc([N+](=O)[O-])cc2)c1N ?
Reply text: 16%

Inquiry: What about CC1COC(Cn2cncn2)(c2ccc(Oc3ccc(Cl)cc3)cc2Cl)O1 (stereo unspecified) ?
Reply text: 100%

Inquiry: What about CCOCCOC(=O)c1c(CC)nn(-c2ccccc2)c1N ?
Reply text: 20%

###

system: HL-60; assay: Antitumor activity against human HL60 cells at 1 uM/L after 72 hrs by MTT assay; format: functional; settings: HL-60, 72 h
inhibition at 1 µM values by entry
Please give a number only; it is taken to be in %.

Study these solved cases before continuing.
>  <molecularString>
CCOCCOC(=O)c1c(SC)nn(-c2ccc(C)cc2C)c1N

>  <experimentalResult>
9.4

$$$$
>  <molecularString>
CCOCCOC(=O)/C(C#N)=C(/CC)NNc1c(Cl)cc(Cl)cc1Cl

>  <experimentalResult>
2.5

$$$$
>  <molecularString>
CCOCCOC(=O)c1c(C(C)C)nn(-c2ccc(Cl)cc2Cl)c1N

>  <experimentalResult>
4.4

$$$$
>  <molecularString>
CCOCCOC(=O)c1c(SC)nn(-c2ccccc2)c1N

>  <experimentalResult>
4.3

$$$$
>  <molecularString>
CCOCCOC(=O)/C(C#N)=C(/CC)NNc1cc(Cl)c(Cl)cc1Cl

>  <experimentalResult>
8.3

$$$$

Inquiry: Quick one: inhibition at 1 µM for CCOCCOC(=O)c1c(SC)nn(-c2ccc([N+](=O)[O-])cc2)c1N ?
Reply text: 2.4

Inquiry: What about CCOCCOC(=O)/C(C#N)=C(\NNc1c(Cl)cc(Cl)cc1Cl)C(C)C ?
Reply text: 0

Inquiry: What about CCOCCOC(=O)/C(C#N)=C(\NNc1c(Cl)cccc1Cl)C(C)C ?
Reply text: 0

Inquiry: What about CCOCCOC(=O)/C(C#N)=C(\NNc1cc(Cl)c(Cl)cc1Cl)C(C)C ?
Reply text: 7.1

Inquiry: What about CCOCCOC(=O)/C(C#N)=C(\NNc1cccc(Cl)c1Cl)C(C)C ?
Reply text: 24.3

Inquiry: What about CCOCCOC(=O)c1c(CC)nn(-c2ccc([N+](=O)[O-])cc2)c1N ?
Reply text: 0.8

Inquiry: What about CCOCCOC(=O)/C(C#N)=C(/CC)NNc1cccc(Cl)c1Cl ?
Reply text: 21.2

Inquiry: What about CCOCCOC(=O)c1c(C(C)C)nn(-c2ccc([N+](=O)[O-])cc2)c1N ?
Reply text: 0

Inquiry: What about CCOCCOC(=O)/C(C#N)=C(/CC)NNc1ccc(Cl)cc1Cl ?
Reply text: 0

Inquiry: What about CCOCCOC(=O)/C(C#N)=C(/CC)NNc1c(Cl)cccc1Cl ?
Reply text: 4.3

Inquiry: What about CCOCCOC(=O)/C(C#N)=C(\NNc1ccc(Cl)cc1Cl)C(C)C ?
Reply text: 0

Inquiry: What about CCOCCOC(=O)c1c(SC)nn(-c2ccc(Cl)cc2Cl)c1N ?
Reply text: 4.3

###

system: Mycosphaerella arachidis; assay: Fungicidal activity against Cercospora arachidicola assessed as inhibition of mycelium growth at 50 mg/L after 72 hrs; format: functional
measuredQuantity: inhibition at 50 µg/mL (%)
Please give a number only; it is taken to be in %.

Inquiry: Quick one: inhibition at 50 µg/mL for CCOCCOC(=O)c1c(SC)nn(-c2ccc(Cl)cc2Cl)c1N ?
Reply text: 47.1

Inquiry: What about CCOCCOC(=O)c1c(SC)nn(-c2ccc(C)cc2)c1N ?
Reply text: 35.3

Inquiry: What about CCOCCOC(=O)/C(C#N)=C(\NNc1ccc(Cl)cc1Cl)C(C)C ?
Reply text: 51.5

###

test system: Alternaria solani; test: Fungicidal activity against Alternaria solani assessed as inhibition of mycelium growth at 50 mg/L after 72 hrs; format: functional
inhibition at 50 µg/mL values by entry
Please give a number only; it is taken to be in %.

Inquiry: Quick one: inhibition at 50 µg/mL for CCOCCOC(=O)c1c(C(C)C)nn(-c2ccc(Cl)cc2Cl)c1N ?
Reply text: 28

Inquiry: What about CCOCCOC(=O)/C(C#N)=C(\NNc1cc(Cl)c(Cl)cc1Cl)C(C)C ?
Reply text: 10

Inquiry: What about CCOCCOC(=O)c1c(CC)nn(-c2ccc([N+](=O)[O-])cc2)c1N ?
Reply text: 8

Inquiry: What about CCOCCOC(=O)c1c(CC)nn(-c2ccc(Cl)cc2)c1N ?
Reply text: 0

Inquiry: What about CCOCCOC(=O)c1c(C(C)C)nn(-c2ccccc2)c1N ?
Reply text: 32

Inquiry: What about CCOCCOC(=O)/C(C#N)=C(\NNc1c(Cl)cc(Cl)cc1Cl)C(C)C ?
Reply text: 10

Inquiry: What about CCOCCOC(=O)/C(C#N)=C(/CC)NNc1cc(Cl)c(Cl)cc1Cl ?
Reply text: 10

Inquiry: What about CCOCCOC(=O)c1c(SC)nn(-c2ccc(Cl)cc2Cl)c1N ?
Reply text: 16

###

system: Bel-7402; assay: Antitumor activity against human Bel7402 cells at 10 uM/L after 72 hrs by MTT assay; type: functional; conditions: Bel-7402, 72 h
inhibition at 10 µM values by entry
Please give a number only; it is taken to be in %.

Study these solved cases before continuing.
>  <molecularString>
CCOCCOC(=O)/C(C#N)=C(/CC)NNc1ccc(Cl)cc1Cl

>  <testedTarget>
Bel-7402

>  <measuredQuantity>
inhibition at 10 µM

>  <unitName>
%

>  <experimentalResult>
0

$$$$
>  <molecularString>
CCOCCOC(=O)/C(C#N)=C(\NNc1c(Cl)cccc1Cl)C(C)C

>  <testedTarget>
Bel-7402

>  <measuredQuantity>
inhibition at 10 µM

>  <unitName>
%

>  <experimentalResult>
9.5

$$$$
>  <molecularString>
CCOCCOC(=O)/C(C#N)=C(/CC)NNc1cc(Cl)c(Cl)cc1Cl

>  <testedTarget>
Bel-7402

>  <measuredQuantity>
inhibition at 10 µM

>  <unitName>
%

>  <experimentalResult>
0

$$$$
>  <molecularString>
CCOCCOC(=O)/C(C#N)=C(\NNc1ccc(Cl)cc1Cl)C(C)C

>  <testedTarget>
Bel-7402

>  <measuredQuantity>
inhibition at 10 µM

>  <unitName>
%

>  <experimentalResult>
4.3

$$$$
>  <molecularString>
CCOCCOC(=O)c1c(CC)nn(-c2ccc([N+](=O)[O-])cc2)c1N

>  <testedTarget>
Bel-7402

>  <measuredQuantity>
inhibition at 10 µM

>  <unitName>
%

>  <experimentalResult>
0

$$$$
>  <molecularString>
CCOCCOC(=O)c1c(SC)nn(-c2ccccc2)c1N

>  <testedTarget>
Bel-7402

>  <measuredQuantity>
inhibition at 10 µM

>  <unitName>
%

>  <experimentalResult>
0

$$$$

Inquiry: Quick one: inhibition at 10 µM for CCOCCOC(=O)c1c(C(C)C)nn(-c2ccc([N+](=O)[O-])cc2)c1N ?
Reply text: 6.2

Inquiry: What about CCOCCOC(=O)/C(C#N)=C(\NNc1c(Cl)cc(Cl)cc1Cl)C(C)C ?
Reply text: 12.7

Inquiry: What about CCOCCOC(=O)/C(C#N)=C(/CC)NNc1c(Cl)cc(Cl)cc1Cl ?
Reply text: 3.9

Inquiry: What about CCOCCOC(=O)/C(C#N)=C(/CC)NNc1c(Cl)cccc1Cl ?
Reply text: 17.1

Inquiry: What about CCOCCOC(=O)c1c(SC)nn(-c2ccc([N+](=O)[O-])cc2)c1N ?
Reply text: 0
